# maps each entry to its IC50
Target: T1, human PTH-1 receptor (human, UniProt Q03431 27-593)
T1 construct: whole, on cells; also called human PTHR1; human PTH receptor
T1 sequence (looked up): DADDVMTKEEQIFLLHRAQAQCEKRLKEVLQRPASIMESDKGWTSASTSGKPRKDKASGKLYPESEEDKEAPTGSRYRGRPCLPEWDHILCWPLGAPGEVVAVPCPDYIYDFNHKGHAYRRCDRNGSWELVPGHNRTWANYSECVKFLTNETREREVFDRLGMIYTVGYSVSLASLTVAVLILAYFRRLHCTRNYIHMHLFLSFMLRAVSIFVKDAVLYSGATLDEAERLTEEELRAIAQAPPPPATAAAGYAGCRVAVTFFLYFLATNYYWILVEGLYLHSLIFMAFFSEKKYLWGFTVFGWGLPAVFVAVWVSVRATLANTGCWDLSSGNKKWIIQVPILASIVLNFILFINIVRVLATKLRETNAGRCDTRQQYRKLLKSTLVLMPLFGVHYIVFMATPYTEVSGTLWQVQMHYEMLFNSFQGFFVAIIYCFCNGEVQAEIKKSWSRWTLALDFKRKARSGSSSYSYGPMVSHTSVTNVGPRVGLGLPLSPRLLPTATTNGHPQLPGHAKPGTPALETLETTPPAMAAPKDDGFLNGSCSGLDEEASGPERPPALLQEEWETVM
Experiment: radioligand competition, human PTHR1 in COS-7 membranes, RG conformation
Procedure: Here, competition binding assays for the R⁰ and RG PTHR1 conformation were performed in membranes prepared from transfected COS-7 cells, as described by Dean et al., Mol Endocrinol 22:156-66, 2008. Data are means of three experiments, each performed in duplicate. Curves were fit to the data using Graph-Pad Prism 4.0.
Ends that are not written are not given here.
Value expressed in nM; do not type the unit.

AVAEIQLMHQRAKWIQDARRRAFLHKLIAEIHTAEI-OH (Synthetic hybrid analog of human PTH(1-14) and human PTHrP(15-36); also called Mc-PTH(1-14)/AAK-rP(15-36)OH; SP-AAK) [SP-PTH-AAK ([Ala1,3,12,18,22,Gln10,Arg11,Trp14,Lys26]PTH(1-14)/PTHrP(15-36))]; 0.22

Shifting focus to the binder that follows.
Q: Sample AVAEIQLMHQRAKWIQDLRRRFFLHHLIAEIHTAEI-OH (Synthetic hybrid analog of human PTH(1-14) and human PTHrP(15-36); also called Super-potent PTH; Mc-PTH(1-14)/rP(15-36)OH) [SP-PTH ([Ala1,3,12,Gln10,Arg11,Trp14]PTH(1-14)/PTHrP(15-36))] — what was its IC50?
Ans: 0.48
